Cited source for all entries: ChEMBL document CHEMBL4406804

# targetEntity: Progesterone receptor (Homo sapiens) (UniProt P06401)
# Sequence (whole entry): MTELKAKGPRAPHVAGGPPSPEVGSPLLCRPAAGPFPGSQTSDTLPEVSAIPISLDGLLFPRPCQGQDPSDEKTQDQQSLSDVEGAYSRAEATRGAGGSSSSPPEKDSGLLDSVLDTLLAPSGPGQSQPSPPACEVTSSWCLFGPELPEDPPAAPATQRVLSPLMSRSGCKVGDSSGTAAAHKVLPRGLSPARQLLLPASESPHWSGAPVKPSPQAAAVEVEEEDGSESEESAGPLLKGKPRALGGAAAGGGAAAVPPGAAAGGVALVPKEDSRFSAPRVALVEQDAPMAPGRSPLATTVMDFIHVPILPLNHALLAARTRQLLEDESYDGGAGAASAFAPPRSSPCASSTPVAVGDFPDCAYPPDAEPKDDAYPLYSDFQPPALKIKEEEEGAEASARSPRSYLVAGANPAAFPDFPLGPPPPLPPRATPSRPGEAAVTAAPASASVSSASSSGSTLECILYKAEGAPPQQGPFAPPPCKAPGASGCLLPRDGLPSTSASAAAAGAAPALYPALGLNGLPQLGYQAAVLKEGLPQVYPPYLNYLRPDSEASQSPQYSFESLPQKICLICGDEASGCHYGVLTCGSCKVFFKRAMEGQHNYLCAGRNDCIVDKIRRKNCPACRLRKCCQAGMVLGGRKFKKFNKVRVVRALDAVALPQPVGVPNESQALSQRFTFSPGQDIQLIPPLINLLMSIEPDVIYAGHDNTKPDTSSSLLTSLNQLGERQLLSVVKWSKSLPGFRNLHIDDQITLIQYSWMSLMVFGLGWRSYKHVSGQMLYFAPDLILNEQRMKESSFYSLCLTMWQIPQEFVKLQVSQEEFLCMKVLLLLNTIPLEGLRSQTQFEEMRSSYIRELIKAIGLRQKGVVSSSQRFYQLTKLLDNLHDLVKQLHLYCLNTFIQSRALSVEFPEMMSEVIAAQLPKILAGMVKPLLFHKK
# assayOverview: Agonist activity at human progesterone receptor expressed in CHO-K1 cells harboring firefly luciferase gene after 20 hrs by One-Glo luciferase reporter gene assay
# Type: cell-based
Active and inactive are the calls of the source. No cut-off for these calls is given here.
experimentalReadout: agonist activity

{"columns": ["structureString", "obsValue"],
 "data": [
  ["COCC#C[C@]1(O)CC[C@H]2[C@@H]3CCC4=CC(=O)CC[C@]4(C)[C@H]3[C@@H](c3ccc(N(C)C)cc3)C[C@@]21C", "inactive"],
  ["CN(C)c1ccc([C@H]2C[C@@]3(C)[C@@H](CC[C@@]3(O)C#CC(C)(C)C)[C@@H]3CCC4=CC(=O)CC[C@@H]4[C@H]32)cc1", "inactive"],
  ["CC#C[C@]1(O)CC[C@H]2[C@@H]3CCC4=CC(=O)CC[C@]4(C)[C@H]3[C@@H](OCc3ccc(Cl)cc3)C[C@@]21C", "inactive"],
  ["CC#C[C@]1(O)CC[C@H]2[C@@H]3CCC4=CC(=O)CC[C@]4(C)[C@H]3[C@@H](c3ccc(N(C)C(C)C)cc3)C[C@@]21C", "inactive"],
  ["CN(C)c1ccc([C@H]2C[C@@]3(C)[C@@H](CC[C@@]3(O)C#CC(C)(C)C)[C@@H]3CCC4=CC(=O)CC[C@]4(C)[C@H]32)cc1", "inactive"],
  ["CN1CCN(c2ccc([C@H]3C[C@@]4(C)[C@@H](CC[C@@]4(O)C#CC(C)(C)C)[C@@H]4CCC5=CC(=O)CC[C@@H]5[C@H]43)cc2)CC1", "inactive"]
]}

###

# targetEntity: Glucocorticoid receptor (Homo sapiens, UniProt P04150)
# Sequence (P04150 whole entry): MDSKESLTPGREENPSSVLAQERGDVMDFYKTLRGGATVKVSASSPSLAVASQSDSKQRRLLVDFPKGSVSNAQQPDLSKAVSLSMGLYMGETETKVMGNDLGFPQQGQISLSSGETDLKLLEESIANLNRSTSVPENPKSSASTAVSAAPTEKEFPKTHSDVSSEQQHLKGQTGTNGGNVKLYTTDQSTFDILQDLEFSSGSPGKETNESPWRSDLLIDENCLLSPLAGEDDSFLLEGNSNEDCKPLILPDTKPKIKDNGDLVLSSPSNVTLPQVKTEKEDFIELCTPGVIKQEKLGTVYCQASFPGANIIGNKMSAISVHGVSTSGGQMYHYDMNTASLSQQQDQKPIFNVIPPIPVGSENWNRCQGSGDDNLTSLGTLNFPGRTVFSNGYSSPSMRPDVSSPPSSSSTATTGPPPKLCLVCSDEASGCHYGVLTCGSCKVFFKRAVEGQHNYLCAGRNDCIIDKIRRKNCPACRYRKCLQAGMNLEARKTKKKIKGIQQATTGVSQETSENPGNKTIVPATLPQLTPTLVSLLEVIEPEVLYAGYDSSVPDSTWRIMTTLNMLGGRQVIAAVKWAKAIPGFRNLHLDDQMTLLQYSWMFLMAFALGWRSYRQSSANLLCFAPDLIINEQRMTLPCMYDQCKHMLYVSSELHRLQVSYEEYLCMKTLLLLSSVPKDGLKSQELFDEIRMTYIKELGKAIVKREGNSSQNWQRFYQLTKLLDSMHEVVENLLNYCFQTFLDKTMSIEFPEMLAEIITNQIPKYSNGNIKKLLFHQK
# assayOverview: Antagonist activity at human glucocorticoid receptor expressed in CHO-K1 cells harboring firefly luciferase gene after 20 hrs by One-Glo luciferase reporter gene assay
# Type: cell-based
The label label 1 is reserved for IC50 strictly under 0.03 µM; label 0 covers values equal to or above it.

{"columns": ["structureString", "assignedCategory"],
 "data": [
  ["CC#C[C@]1(O)CC[C@H]2[C@@H]3CCC4=CC(=O)CC[C@]4(C)[C@H]3[C@@H](c3ccc(N(C)CCOC)cc3)C[C@@]21C", "label 0"],
  ["CN(C)c1ccc([C@H]2C[C@@]3(C)[C@@H](CC[C@@]3(O)C#CC3CC3)[C@@H]3CCC4=CC(=O)CC[C@]4(C)[C@H]32)cc1", "label 1"],
  ["CC(C)(C)C#C[C@]1(O)CC[C@H]2[C@@H]3CCC4=CC(=O)CC[C@@H]4[C@H]3[C@@H](c3ccc(N4CCN(S(C)(=O)=O)CC4)cc3)C[C@@]21C", "label 1"],
  ["CCN(CC)c1ccc([C@H]2C[C@@]3(C)[C@@H](CC[C@@]3(O)C#CC(C)(C)C)[C@@H]3CCC4=CC(=O)CC[C@@H]4[C@H]32)cc1", "label 1"],
  ["CC#C[C@]1(O)CC[C@H]2[C@@H]3CCC4=CC(=O)CC[C@]4(C)[C@H]3[C@@H](c3ccc(OC)cc3)C[C@@]21C", "label 0"],
  ["CCC(C)(C)C#C[C@]1(O)CC[C@H]2[C@@H]3CCC4=CC(=O)CC[C@@H]4[C@H]3[C@@H](c3ccc(N(C)C)cc3)C[C@@]21C", "label 1"]
]}

###

# targetEntity: Cytochrome P450 2C8 (Homo sapiens)
# Sequence (P10632 whole entry): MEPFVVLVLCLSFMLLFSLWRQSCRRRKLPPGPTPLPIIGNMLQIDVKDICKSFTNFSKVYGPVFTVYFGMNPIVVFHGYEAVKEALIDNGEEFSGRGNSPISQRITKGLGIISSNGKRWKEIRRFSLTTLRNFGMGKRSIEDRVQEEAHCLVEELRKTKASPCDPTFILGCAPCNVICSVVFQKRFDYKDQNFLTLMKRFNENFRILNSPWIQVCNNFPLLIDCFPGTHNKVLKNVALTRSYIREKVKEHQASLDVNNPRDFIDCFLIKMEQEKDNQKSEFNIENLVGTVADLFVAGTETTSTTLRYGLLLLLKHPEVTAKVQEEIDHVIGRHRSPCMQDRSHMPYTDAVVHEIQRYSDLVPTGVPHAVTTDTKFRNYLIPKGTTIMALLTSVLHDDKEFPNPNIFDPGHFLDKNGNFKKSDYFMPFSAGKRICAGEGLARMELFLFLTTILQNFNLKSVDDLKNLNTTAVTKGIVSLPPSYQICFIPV

{"columns": ["structureString", "IC50, µM"],
 "data": [
  ["CC#C[C@]1(O)CC[C@H]2[C@@H]3CCC4=CC(=O)CC[C@]4(C)[C@H]3[C@@H](c3ccc(N(C)C)cc3)C[C@@]21C", 8]
]}

###

Some molecules, each annotated with its measured IC50.
# targetEntity: UniProtKB P04150
# assayOverview: Antagonist activity at human glucocorticoid receptor expressed in CHO-K1 cells assessed as inhibition of glucocorticoid receptor-dexamethasone coactivator protein-protein interaction incubated for 24 hrs by bioluminescence assay
# Assay type: cell-based

{"columns": ["structureString", "targetEntity", "resultUnits", "IC50"],
 "data": [
  ["CC#C[C@]1(O)CC[C@H]2[C@@H]3CCC4=CC(=O)CC[C@]4(C)[C@H]3[C@@H](c3ccc(N(C)C)cc3)C[C@@]21C", "UniProtKB P04150", "nM", 16],
  ["CN(C)c1ccc([C@H]2C[C@@]3(C)[C@@H](CC[C@@]3(O)C#CC(C)(C)C)[C@@H]3CCC4=CC(=O)CCC4=C32)cc1", "UniProtKB P04150", "nM", 7.5]
]}

###

# targetEntity: UniProt P10275
# Sequence (P10275 whole entry): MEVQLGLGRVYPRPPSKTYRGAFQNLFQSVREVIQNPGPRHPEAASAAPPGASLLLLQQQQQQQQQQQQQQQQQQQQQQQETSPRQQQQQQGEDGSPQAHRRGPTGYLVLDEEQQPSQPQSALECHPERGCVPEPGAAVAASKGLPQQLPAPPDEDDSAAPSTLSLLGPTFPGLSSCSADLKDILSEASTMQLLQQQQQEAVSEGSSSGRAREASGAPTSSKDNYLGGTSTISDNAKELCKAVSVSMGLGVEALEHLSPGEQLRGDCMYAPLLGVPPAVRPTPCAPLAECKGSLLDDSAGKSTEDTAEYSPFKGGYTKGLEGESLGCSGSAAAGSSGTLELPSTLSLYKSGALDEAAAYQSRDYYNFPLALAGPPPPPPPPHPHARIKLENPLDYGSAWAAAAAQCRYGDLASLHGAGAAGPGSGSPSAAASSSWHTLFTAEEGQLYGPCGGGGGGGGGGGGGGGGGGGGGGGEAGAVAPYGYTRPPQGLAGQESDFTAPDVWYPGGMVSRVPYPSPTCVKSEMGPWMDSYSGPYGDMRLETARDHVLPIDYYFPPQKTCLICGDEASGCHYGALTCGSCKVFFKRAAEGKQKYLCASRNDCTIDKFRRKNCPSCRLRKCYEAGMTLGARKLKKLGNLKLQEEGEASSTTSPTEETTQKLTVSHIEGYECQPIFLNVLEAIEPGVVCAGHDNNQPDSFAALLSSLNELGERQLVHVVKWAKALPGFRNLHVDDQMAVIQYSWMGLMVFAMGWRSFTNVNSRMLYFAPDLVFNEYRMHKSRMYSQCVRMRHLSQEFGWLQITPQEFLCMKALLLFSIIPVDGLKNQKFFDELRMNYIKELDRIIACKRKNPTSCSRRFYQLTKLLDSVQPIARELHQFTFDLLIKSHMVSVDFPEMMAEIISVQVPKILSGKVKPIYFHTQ
# assayOverview: Agonist activity at human androgen receptor in human LNCAP cells harboring firefly luciferase gene after 20 hrs by One-Glo luciferase reporter gene assay
pEC50: −log10 of the molar value.

{"columns": ["structureString", "pEC50"],
 "data": [
  ["COCC#C[C@]1(O)CC[C@H]2[C@@H]3CCC4=CC(=O)CC[C@]4(C)[C@H]3[C@@H](c3ccc(N(C)C)cc3)C[C@@]21C", "< 5.60"],
  ["CC(C)(C)C#C[C@]1(O)CC[C@H]2[C@@H]3CCC4=CC(=O)CC[C@@H]4[C@H]3[C@@H](c3ccc(N4CCOCC4)cc3)C[C@@]21C", "< 5.60"],
  ["CN(C)c1ccc([C@H]2C[C@@]3(C)[C@@H](CC[C@@]3(O)C#CC3CC3)[C@@H]3CCC4=CC(=O)CC[C@]4(C)[C@H]32)cc1", "< 5.60"]
]}

###

# targetEntity: UniProt P06401
# assayOverview: Antagonist activity at human progesterone receptor expressed in CHO-K1 cells harboring firefly luciferase gene after 20 hrs by One-Glo luciferase reporter gene assay
The label Fulfilled is reserved for IC50 strictly under 0.5 µM; Not fulfilled covers values equal to or above it.

{"columns": ["structureString", "targetEntity", "assignedCategory"],
 "data": [
  ["CC#C[C@]1(O)CC[C@H]2[C@@H]3CCC4=CC(=O)CC[C@]4(C)[C@H]3[C@@H](c3ccc(N(C)CCOC)cc3)C[C@@]21C", "UniProt P06401", "Not fulfilled"],
  ["CN(C)c1ccc([C@H]2C[C@@]3(C)[C@@H](CC[C@@]3(O)C#CC(C)(C)C)[C@@H]3CCC4=CC(=O)CCC4=C32)cc1", "UniProt P06401", "Fulfilled"],
  ["CCC(C)(C)C#C[C@]1(O)CC[C@H]2[C@@H]3CCC4=CC(=O)CC[C@@H]4[C@H]3[C@@H](c3ccc(N(C)C)cc3)C[C@@]21C", "UniProt P06401", "Fulfilled"],
  ["CN(C)c1ccc([C@H]2C[C@@]3(C)[C@@H](CC[C@@]3(O)C#CC(C)(C)C)[C@@H]3CCC4=CC(=O)CC[C@@H]4[C@H]32)cc1", "UniProt P06401", "Fulfilled"],
  ["CC(C)(C)C#C[C@]1(O)CC[C@H]2[C@@H]3CCC4=CC(=O)CC[C@@H]4[C@H]3[C@@H](c3ccc(N4CCN(S(C)(=O)=O)CC4)cc3)C[C@@]21C", "UniProt P06401", "Fulfilled"],
  ["CCN(CC)c1ccc([C@H]2C[C@@]3(C)[C@@H](CC[C@@]3(O)C#CC(C)(C)C)[C@@H]3CCC4=CC(=O)CC[C@@H]4[C@H]32)cc1", "UniProt P06401", "Fulfilled"],
  ["CN1CCN(c2ccc([C@H]3C[C@@]4(C)[C@@H](CC[C@@]4(O)C#CC(C)(C)C)[C@@H]4CCC5=CC(=O)CC[C@@H]5[C@H]43)cc2)CC1", "UniProt P06401", "Fulfilled"],
  ["CC(C)C#C[C@]1(O)CC[C@H]2[C@@H]3CCC4=CC(=O)CC[C@]4(C)[C@H]3[C@@H](c3ccc(N(C)C)cc3)C[C@@]21C", "UniProt P06401", "Not fulfilled"],
  ["CN(C)c1ccc([C@H]2C[C@@]3(C)[C@@H](CC[C@@]3(O)C#CC(F)(F)F)[C@@H]3CCC4=CC(=O)CC[C@]4(C)[C@H]32)cc1", "UniProt P06401", "Not fulfilled"],
  ["CC#C[C@]1(O)CC[C@H]2[C@@H]3CCC4=CC(=O)CC[C@]4(C)[C@H]3[C@@H](c3ccc(N(C)C)cc3)C[C@@]21C", "UniProt P06401", "Not fulfilled"],
  ["CC#C[C@]1(O)CC[C@H]2[C@@H]3CCC4=CC(=O)CC[C@]4(C)[C@H]3[C@@H](c3ccc(-n4cccc4)cc3)C[C@@]21C", "UniProt P06401", "Not fulfilled"]
]}
